system-tested: human ALK5 (Homo sapiens, UniProt P36897)
Construct: human ALK5 (recombinant TGF β1 N-term GST-tagged, 80-end); GST (N); purchased
test-summary: ADP-GLO Kinases assay, inhibitory activity on ALK5
Assay type: biochemical
cond: Table 10; purified recombinant human ALK5 2.6 nM, ADP-Glo, 25° C., 150 min incubation
# IC50 listing for each entry below

Entry Fc1ccc(Cl)cc1-c1cc(Nc2ccnc3[nH]ncc23)c2c(n1)NCCO2 [Example 25] : reported IC50 = ? < 1 nM

Would you mind doing Clc1cccc(-c2cc(Nc3ccncc3)c3c(n2)NCCO3)n1 [Example 13] as well? 1 to 5 nM

Would you mind doing Fc1ccc(-c2cc(Nc3ccncc3)c3c(n2)NCCO3)nc1 [Example 26] as well? 5 to 10 nM

Would you mind doing CN(CCNC(=O)c1cnccc1Nc1cc(-c2cc(Cl)ccc2F)nc2c1OCCN2)C1COC1 [Example 43] as well? 1 to 5 nM

Would you mind doing CNC(=O)c1cnccc1Nc1cc(-c2cc(Cl)ccc2F)nc2c1OCCN2 [Example 2] as well? < 1 nM

Would you mind doing Cc1cccc(-c2cc(Nc3ccncc3)c3c(n2)NCCO3)n1 [Example 5] as well? 5 to 10 nM

Would you mind doing Fc1ccc(Cl)cc1-c1cc(Nc2ccnc3[nH]cnc23)c2c(n1)NCCO2 [Example 35] as well? < 1 nM

Would you mind doing CN1CCC(CCNC(=O)c2cc3c(Nc4cc(-c5cc(Cl)ccc5F)nc5c4OCCN5)ccnc3[nH]2)CC1 [Example 48] as well? < 1 nM

Would you mind doing COC(=O)c1cnccc1Nc1cc(-c2cc(Cl)ccc2F)nc2c1OCCN2 [Example 17] as well? < 1 nM

Would you mind doing CN1CCN(CCC(=O)Nc2cc(Nc3cc(-c4cc(Cl)ccc4F)nc4c3OCCN4)ccn2)CC1 [Example 33] as well? < 1 nM

Would you mind doing Nc1cc(Nc2cc(-c3cc(Cl)ccc3F)nc3c2OCCN3)ccn1 [Example 3] as well? 1 to 5 nM

Would you mind doing O=C(NC1CCNCC1)c1cnccc1Nc1cc(-c2cc(Cl)ccc2F)nc2c1OCCN2 [Example 24] as well? < 1 nM

Would you mind doing Cc1cccc(-c2cc(Nc3ccnc4[nH]cnc34)c3c(n2)NCCO3)n1 [Example 40] as well? < 1 nM

Would you mind doing COC(=O)c1cc2c(Nc3cc(-c4cc(Cl)ccc4F)nc4c3OCCN4)ccnc2[nH]1 [Example 38] as well? < 1 nM

Would you mind doing CC(C)NC(=O)c1cnccc1Nc1cc(-c2cc(Cl)ccc2F)nc2c1OCCN2 [Example 22] as well? 1 to 5 nM

Would you mind doing CC(=O)N1CCN(CCNC(=O)c2cnccc2Nc2cc(-c3cc(Cl)ccc3F)nc3c2OCCN3)CC1 [Example 47] as well? 1 to 5 nM

Would you mind doing CNCCNC(=O)c1cnccc1Nc1cc(-c2cc(Cl)ccc2F)nc2c1OCCN2 [Example 21] as well? < 1 nM

Would you mind doing Nc1cnccc1Nc1cc(-c2cc(Cl)ccc2F)nc2c1OCCN2 [Example 7] as well? 1 to 5 nM

Would you mind doing COC(=O)c1c[nH]c2nccc(Nc3cc(-c4cc(Cl)ccc4F)nc4c3OCCN4)c12 [Example 36] as well? < 1 nM

Would you mind doing CN(C)CCC(=O)Nc1cc(Nc2cc(-c3cc(Cl)ccc3F)nc3c2OCCN3)ccn1 [Example 34] as well? < 1 nM

###

system-tested: human ALK5 (Homo sapiens, UniProt P36897)
Construct: human ALK5 (recombinant TGF β1 N-term GST-tagged, 80-end); GST (N); purchased
Sequence (P36897 80-503 limits assumed): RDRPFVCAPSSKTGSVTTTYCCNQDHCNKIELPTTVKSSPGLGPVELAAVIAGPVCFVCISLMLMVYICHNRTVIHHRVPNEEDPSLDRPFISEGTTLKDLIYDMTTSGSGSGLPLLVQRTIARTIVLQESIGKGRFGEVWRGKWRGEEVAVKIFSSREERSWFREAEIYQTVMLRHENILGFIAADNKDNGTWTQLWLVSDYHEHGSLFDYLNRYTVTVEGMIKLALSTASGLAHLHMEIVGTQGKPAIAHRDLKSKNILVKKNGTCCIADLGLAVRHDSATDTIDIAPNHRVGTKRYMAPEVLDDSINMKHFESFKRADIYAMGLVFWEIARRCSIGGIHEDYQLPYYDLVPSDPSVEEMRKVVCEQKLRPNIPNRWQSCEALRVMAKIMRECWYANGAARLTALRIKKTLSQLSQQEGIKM
test-summary: ADP-GLO Kinases assay, inhibitory activity on ALK5
Format: biochemical
cond: Table 10; purified recombinant human ALK5 2.6 nM, ADP-Glo, 25° C., 150 min incubation
experimental-endpoint: IC50

INSERT INTO results (compound, system_tested, experimental_endpoint, result) VALUES
  ('CN1CCN(CCNC(=O)c2cnccc2Nc2cc(-c3cc(Cl)ccc3F)nc3c2OCCN3)CC1 [Example 28]', 'human ALK5 (Homo sapiens, UniProt P36897)', 'IC50', '1 to 5 nM');

Entry O=C(CCN1CCOCC1)Nc1cc(Nc2cc(-c3cc(Cl)ccc3F)nc3c2OCCN3)ccn1 [Example 20] : reported IC50 = ? < 1 nM

Would you mind doing Cc1ccc(F)c(-c2cc(Nc3ccncc3)c3c(n2)NCCO3)c1 [Example 8] as well? < 1 nM

Would you mind doing Cc1cccc(-c2cc(Nc3ccnc4[nH]ccc34)c3c(n2)NCCO3)n1 [Example 45] as well? < 1 nM

Would you mind doing O=C(NCCN1CCNCC1)c1cnccc1Nc1cc(-c2cc(Cl)ccc2F)nc2c1OCCN2 [Example 12] as well? < 1 nM

Would you mind doing Fc1ccc(F)c(-c2cc(Nc3ccncc3)c3c(n2)NCCO3)c1 [Example 14] as well? 1 to 5 nM

Would you mind doing Cc1cccc(-c2cc(Nc3ccncc3C(=O)NC3CCN(C)CC3)c3c(n2)NCCO3)n1 [Example 42] as well? 1 to 5 nM

Would you mind doing CNC(=O)c1cc(Nc2cc(-c3cc(Cl)ccc3F)nc3c2OCCN3)ccn1 [Example 6] as well? 5 to 10 nM
